experiment: Quantitative High-Throughput drug screen in 47 multiple myeloma cell lines against the NCATS MIPE library collection: JJN3_DSMZ cell viability assay (AID 1918966; further: nearly all actives have a fitted effect of over 50% in size); settings: JJN3 myeloma cells viability, CellTiter-Glo ATP, 48 h; series mostly up to 45.8 µM
Results filed as inconclusive are left out. Active and inactive are the calls of the source. The call rests on the fitted dose curve; in most records, active means well fitted cell-killing curve with a large enough effect; inconclusive means small, poorly fitted or top-dose-only effect, or effect the other way; inactive means no such curve, though single readings can be large or run the other way.
Outcome field: choose from y for active, n for inactive

Cc1ccccc1C(=O)Nc1ccc(C(=O)N2CCCC(O)c3cc(Cl)ccc32)c(C)c1 (stereo unspecified)	y
Cc1coc2c1C(=O)C(=O)c1c-2ccc2c(C)cccc12	y
C[C@@H](NCc1cc2ccccc2[nH]1)c1cccc2ccccc12	n

Let's switch to this compound now.
Assay result, entry Cn1cc(C2=C(c3c4n(c5ccccc35)CCC(CN)C4)C(=O)NC2=O)c2ccccc21 (stereo unspecified) — outcome? y
